experimentalSystem: α-1B adrenoreceptor (Rattus norvegicus, UniProt P15823)
Construct: from tissue; host or cells: rat spleen
Sequence (P15823 whole entry): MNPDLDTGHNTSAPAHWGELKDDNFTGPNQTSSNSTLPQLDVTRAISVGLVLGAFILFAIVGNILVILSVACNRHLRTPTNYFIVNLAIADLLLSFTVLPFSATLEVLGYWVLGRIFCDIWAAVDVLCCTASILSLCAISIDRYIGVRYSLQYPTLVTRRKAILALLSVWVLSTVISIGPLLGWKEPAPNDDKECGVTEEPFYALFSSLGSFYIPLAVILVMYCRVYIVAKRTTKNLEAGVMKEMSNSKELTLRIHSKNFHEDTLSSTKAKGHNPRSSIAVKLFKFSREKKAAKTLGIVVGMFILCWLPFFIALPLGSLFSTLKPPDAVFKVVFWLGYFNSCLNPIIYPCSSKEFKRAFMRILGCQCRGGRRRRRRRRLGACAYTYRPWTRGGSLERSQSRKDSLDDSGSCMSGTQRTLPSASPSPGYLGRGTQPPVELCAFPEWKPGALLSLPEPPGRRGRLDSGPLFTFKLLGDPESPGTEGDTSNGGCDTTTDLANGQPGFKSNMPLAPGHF
assayProtocol: cell-based
settings: phenylephrine-induced contraction; Schild plot; read-out: In Vitro Characterization (pA2) Rat Spleen (converted)
Structures can show the parent of a compound that is named as a salt.
Measured Kb accompanies every entry in the list below.

molecule: COc1ccc2c(n1)sc1c(=O)n(CCCCN3C[C@H]4COc5cccc(OC)c5[C@@H]4C3)c(=O)[nH]c12 [Example 46, hydrochloride]
Kb, nM: 7.59
--
molecule: COc1ccc2sc3c(=O)n(CCCCN4C[C@H]5COc6cccc(OC)c6[C@@H]5C4)c(=O)[nH]c3c2n1 [Example 26, hydrochloride]
Kb, nM: 3.16
--
molecule: COc1cccc2c1[C@@H]1CN(CCCCn3c(=O)[nH]c4c(sc5ccc(OC(C)C)nc54)c3=O)C[C@H]1CO2 [Example 51, hydrochloride]
Kb, nM: 33.9
--
molecule: COc1cccc2c1[C@@H]1CN(CCCCn3c(=O)[nH]c4c(sc5ccncc54)c3=O)C[C@@H]1CO2 [Example 28, dihydrochloride]
Kb, nM: 4.37
--
molecule: COc1cccc2c1[C@@H]1CN(CCCCn3c(=O)[nH]c4c(sc5ccnc(Cl)c54)c3=O)C[C@@H]1CO2 [Example 48, hydrochloride]
Kb, nM: 39.8
--
molecule: COc1cccc2c1[C@@H]1CN(CCCCn3c(=O)[nH]c4c(sc5c(OC)ccnc54)c3=O)C[C@@H]1CO2 [Example 18, dihydrochloride]
Kb, nM: 19.5

====

experimentalSystem: α-1b adrenoreceptor (Mesocricetus auratus, UniProt P18841)
Sequence (P18841 whole entry): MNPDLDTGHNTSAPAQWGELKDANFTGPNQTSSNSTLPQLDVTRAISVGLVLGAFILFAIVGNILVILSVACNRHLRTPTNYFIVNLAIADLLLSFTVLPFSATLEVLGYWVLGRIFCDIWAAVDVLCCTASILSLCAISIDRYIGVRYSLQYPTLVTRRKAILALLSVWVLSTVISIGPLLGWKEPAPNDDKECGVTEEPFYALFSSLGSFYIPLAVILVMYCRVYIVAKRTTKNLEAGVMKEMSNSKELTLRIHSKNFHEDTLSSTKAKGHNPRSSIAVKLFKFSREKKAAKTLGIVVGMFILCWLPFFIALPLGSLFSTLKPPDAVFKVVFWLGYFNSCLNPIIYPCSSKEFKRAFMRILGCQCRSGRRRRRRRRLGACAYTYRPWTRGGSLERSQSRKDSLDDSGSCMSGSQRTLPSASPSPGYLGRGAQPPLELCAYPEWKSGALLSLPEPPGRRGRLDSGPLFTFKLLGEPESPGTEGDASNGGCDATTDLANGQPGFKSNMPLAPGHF
assayProtocol: biochemical
Type: binding, hamster
settings: [3H]-prazosin radioligand; cloned receptor in LTK cell membranes; read-out: Radioligand Binding (Ki, nM) 1b (Hamster)
Where a name gives a salt, the structure may show the parent alone.

compound: COc1cc2[nH]c(=O)n(CCCN3CC[C@H]4c5c(OC)cccc5OC[C@@H]4C3)c(=O)c2cc1OC (racemic) [Example 83, hydrochloride]
Ki: 3.07 nM
//
compound: COc1cccc2c1[C@@H]1CN(CCCCn3c(=O)[nH]c4c(sc5ccc(-c6cccnc6)nc54)c3=O)C[C@@H]1CO2 [Example 56, dihydrochloride]
Ki: 10.2 nM
//
compound: COc1cccc2c1[C@@H]1CN(CCCCn3c(=O)[nH]c4c(sc5ncc(-c6ccccc6)nc54)c3=O)C[C@@H]1CO2 [Example 39, hydrochloride]
Ki: 31.9 nM
//
compound: COc1cccc2c1[C@@H]1CN(CCCCn3c(=O)[nH]c4c(sc5cc(Cl)cnc54)c3=O)C[C@@H]1CO2 [Example 38, hydrochloride]
Ki: 5.63 nM
//
compound: COc1ccc2c(n1)sc1c(=O)n(CCCCN3C[C@H]4COc5cccc(OC)c5[C@@H]4C3)c(=O)[nH]c12 [Example 46, hydrochloride]
Ki: 2.58 nM
//
compound: COc1cccc2c1[C@@H]1CN(CCCCn3c(=O)[nH]c4c(sc5ccccc54)c3=O)C[C@@H]1CO2 [Example 22, hydrochloride]
Ki: 1.16 nM
//
compound: COc1cccc2c1[C@@H]1CN(CCCCn3c(=O)[nH]c4c(sc5nccnc54)c3=O)C[C@H]1CO2 [Example 14, dihydrochloride]
Ki: 1.37 nM
//
compound: COCCn1c(=O)n(CCCCN2C[C@@H]3COc4cccc(OC)c4[C@H]3C2)c(=O)c2sc3nccnc3c21 [Example 11, hydrochloride]
Ki: 3.78 nM
//
compound: COc1cccc2c1[C@@H]1CN(CCCCn3c(=O)[nH]c4c(sc5ncc(-c6cccnc6)nc54)c3=O)C[C@@H]1CO2 [Example 61, dihydrochloride]
Ki: 8.85 nM
//
compound: COc1cnc2sc3c(=O)n(CCCCN4C[C@H]5COc6cccc(OC)c6[C@@H]5C4)c(=O)[nH]c3c2c1 [Example 55, hydrochloride]
Ki: 1.46 nM
//
compound: COc1cccc2c1[C@@H]1CN(CCCCn3c(=O)[nH]c4c(sc5ncc(Cl)nc54)c3=O)C[C@H]1CO2 [Example 13, hydrochloride]
Ki: 2.49 nM
//
compound: COc1cccc2c1[C@@H]1CN(CCCCn3c(=O)[nH]c4c(sc5ncccc54)c3=O)C[C@H]1CO2 [Example 44, hydrochloride]
Ki: 0.622 nM
